Entry source: ChEMBL document CHEMBL4196164

Here the recorded inhibition at 10 min, 10 µM is given for each entry.
Measurement Target: UniProtKB P08183
Sequence (P08183 whole entry): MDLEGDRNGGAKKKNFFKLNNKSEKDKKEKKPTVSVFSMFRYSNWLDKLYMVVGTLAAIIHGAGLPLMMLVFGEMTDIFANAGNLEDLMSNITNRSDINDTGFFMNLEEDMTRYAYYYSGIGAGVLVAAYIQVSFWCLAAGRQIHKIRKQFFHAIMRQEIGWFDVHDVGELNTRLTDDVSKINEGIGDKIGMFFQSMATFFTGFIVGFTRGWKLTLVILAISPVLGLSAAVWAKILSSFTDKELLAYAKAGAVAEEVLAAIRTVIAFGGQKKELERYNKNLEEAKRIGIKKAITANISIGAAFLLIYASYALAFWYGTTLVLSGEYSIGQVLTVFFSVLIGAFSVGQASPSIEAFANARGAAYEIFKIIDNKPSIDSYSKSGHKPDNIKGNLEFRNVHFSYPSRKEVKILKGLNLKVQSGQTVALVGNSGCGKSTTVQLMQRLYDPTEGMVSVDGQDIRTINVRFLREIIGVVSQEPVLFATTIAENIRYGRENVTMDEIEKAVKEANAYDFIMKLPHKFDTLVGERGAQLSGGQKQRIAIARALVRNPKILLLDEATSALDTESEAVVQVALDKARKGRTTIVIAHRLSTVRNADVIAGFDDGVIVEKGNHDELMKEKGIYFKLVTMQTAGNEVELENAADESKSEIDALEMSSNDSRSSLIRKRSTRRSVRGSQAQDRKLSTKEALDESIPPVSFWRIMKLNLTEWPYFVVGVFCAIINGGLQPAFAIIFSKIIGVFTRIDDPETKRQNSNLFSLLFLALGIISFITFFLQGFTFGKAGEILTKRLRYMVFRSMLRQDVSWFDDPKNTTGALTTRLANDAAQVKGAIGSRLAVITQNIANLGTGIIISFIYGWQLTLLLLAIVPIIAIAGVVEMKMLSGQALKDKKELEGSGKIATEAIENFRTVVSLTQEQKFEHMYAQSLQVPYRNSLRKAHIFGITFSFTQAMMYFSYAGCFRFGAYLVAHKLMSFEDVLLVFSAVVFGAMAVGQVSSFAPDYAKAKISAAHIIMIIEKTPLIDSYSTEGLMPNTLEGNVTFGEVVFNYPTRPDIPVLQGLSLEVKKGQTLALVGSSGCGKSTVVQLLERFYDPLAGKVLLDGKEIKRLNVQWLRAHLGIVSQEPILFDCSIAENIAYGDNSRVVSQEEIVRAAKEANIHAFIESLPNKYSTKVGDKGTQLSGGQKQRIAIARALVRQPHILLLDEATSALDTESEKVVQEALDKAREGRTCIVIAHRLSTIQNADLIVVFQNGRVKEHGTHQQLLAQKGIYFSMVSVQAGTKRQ
Protocol Description: Inhibition of ABCB1 in human KBV1 cells at 10 uM measured after 10 mins by calcein-AM dye based fluorescence assay relative to 10 uM tariquidar
Format: cell-based
Reported Conditions: probe calcein-AM

                                  structure  endpoint_value
0  COCCOCCOCCOc1cc2c(cc1OC)CCN(CC(=O)c1cccc(NC(=O)c3ccc4ccccc4n3)c1)C2           < 25%
1  COc1cc2c(cc1OC)CN(CCOc1ccc(/C=C/C(=O)c3cccc(NC(=O)c4ccc5ccccc5n4)c3)cc1)CC2           < 25%
2  COc1cc2c(cc1OC)CN(CC(=O)c1cccc(NC(=O)c3ccc4ccccc4n3)c1)CC2           < 25%
3  COc1cc2c(cc1OC)CN(CCOc1ccc(/C=C/C(=O)c3ccc(C)c(NC(=O)c4ccc5ccccc5n4)c3)cc1)CC2           < 25%
4  COCCOCCOCCOc1cc2c(cc1OC)CCN(CCOc1ccc(/C=C/C(=O)c3ccc(C)c(NC(=O)c4ccc5ccccc5n4)c3)cc1)C2           < 25%
5  COCCOc1cc2c(cc1OC)CCN(CC(=O)c1ccc(C)c(NC(=O)c3ccc4ccccc4n3)c1)C2           < 25%

Query: If you can, please state the reported inhibition at 10 min, 10 µM value of "COc1cc2c(cc1OC)CN(CC(=O)c1ccc(C)c(NC(=O)c3ccc4ccccc4n3)c1)CC2" .
Result: < 25%

Query: Request the reported inhibition at 10 min, 10 µM associated with "COCCOc1cc2c(cc1OC)CCN(CCOc1ccc(/C=C/C(=O)c3ccc(C)c(NC(=O)c4ccc5ccccc5n4)c3)cc1)C2"
Result: < 25%
